A collection of compounds and their measured pIC50
# System Tested: PGI2 receptor in the human blood platelet membrane fraction (Homo sapiens)
# Construct: human blood platelet membrane fraction (0.3 mg protein) was added
# Sequence (P43119 whole entry): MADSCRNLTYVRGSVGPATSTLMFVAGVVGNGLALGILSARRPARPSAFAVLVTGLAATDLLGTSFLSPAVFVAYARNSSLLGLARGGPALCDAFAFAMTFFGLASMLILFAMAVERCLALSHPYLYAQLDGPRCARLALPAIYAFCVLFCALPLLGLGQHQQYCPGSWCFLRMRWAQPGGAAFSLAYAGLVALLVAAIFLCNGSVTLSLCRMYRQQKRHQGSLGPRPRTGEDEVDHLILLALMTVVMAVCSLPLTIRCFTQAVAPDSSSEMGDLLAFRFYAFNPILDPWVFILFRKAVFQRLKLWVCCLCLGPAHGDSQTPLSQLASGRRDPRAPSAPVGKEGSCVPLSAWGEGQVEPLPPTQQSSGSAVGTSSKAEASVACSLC
# Protocol Details: Inhibitory activity on binding of [^3 H]-iloprost to PGI2 receptor in the human blood platelet membrane fraction
# Run Parameters: 10 nM [^3 H]-iloprost, human blood platelet membrane fraction (0.3 mg protein), pH 7.4, 24° C., 30 min; read-out: IC50, inhibition of [^3 H]-iloprost binding to PGI2 receptor
pIC50: −log10 of the molar value.

Compound	System Tested	pIC50
O=C(O)COc1cccc(CCCC(=O)NC(c2ccccc2)c2ccccc2)c1	PGI2 receptor in the human blood platelet membrane fraction (Homo sapiens)	5.70
O=C(O)COc1ccccc1CCCCn1cc(C(c2ccccc2)c2cccnc2)cn1 (stereo not shown)	PGI2 receptor in the human blood platelet membrane fraction (Homo sapiens)	5.70
O=C(O)COc1cccc(CCCC(=O)N(Cc2ccccc2)Cc2ccccc2)c1	PGI2 receptor in the human blood platelet membrane fraction (Homo sapiens)	5.82
O=C(O)COc1cccc(CCCn2cc(C(c3ccccc3)c3ccccc3)cn2)c1	PGI2 receptor in the human blood platelet membrane fraction (Homo sapiens)	6.82
O=C(O)COc1cccc(CCCc2cc(C(c3ccccc3)c3ccccc3)on2)c1	PGI2 receptor in the human blood platelet membrane fraction (Homo sapiens)	6.92
O=C(O)COc1cccc(CCCn2ncc(C(c3ccccc3)c3ccccc3)n2)c1	PGI2 receptor in the human blood platelet membrane fraction (Homo sapiens)	6.44
O=C(O)COc1cccc(CCCC(=O)NN(c2ccccc2)c2ccccc2)c1	PGI2 receptor in the human blood platelet membrane fraction (Homo sapiens)	6.34
O=C(O)COc1cccc(CCCc2nc(C(c3ccccc3)c3ccccc3)no2)c1	PGI2 receptor in the human blood platelet membrane fraction (Homo sapiens)	5.36
O=C(O)COc1cccc(CCCON=C(c2ccccc2)c2cccnc2)c1	PGI2 receptor in the human blood platelet membrane fraction (Homo sapiens)	5.30
O=C(O)COc1cccc(CCCc2noc(C(c3ccccc3)c3ccccc3)n2)c1	PGI2 receptor in the human blood platelet membrane fraction (Homo sapiens)	5.82
CCCC(CCCc1cccc(OCC(=O)O)c1)NOC(c1ccccc1)c1ccccc1 (stereo not shown)	PGI2 receptor in the human blood platelet membrane fraction (Homo sapiens)	5.52
COC(=O)COc1cccc(CCCC(=O)OC(c2ccccc2)c2ccccc2)c1	PGI2 receptor in the human blood platelet membrane fraction (Homo sapiens)	5.40
O=C(O)COc1cccc(CCCn2cc(C(c3ccccc3)c3ccccc3)nn2)c1	PGI2 receptor in the human blood platelet membrane fraction (Homo sapiens)	6.57
O=C(O)COc1cccc(OCCn2cc(C(c3ccccc3)c3ccccc3)cn2)c1	PGI2 receptor in the human blood platelet membrane fraction (Homo sapiens)	6.59
Cc1c(/C=C/Cn2cc(C(c3ccccc3)c3ccccc3)cn2)cccc1OCC(=O)O [17(s)]	PGI2 receptor in the human blood platelet membrane fraction (Homo sapiens)	6.11
CCCC(CCCc1cccc(OCC(=O)O)c1)=NOC(c1ccccc1)c1ccccc1	PGI2 receptor in the human blood platelet membrane fraction (Homo sapiens)	5.80
O=C(O)COc1cccc(CCCCOC(c2ccccc2)c2ccccc2)c1	PGI2 receptor in the human blood platelet membrane fraction (Homo sapiens)	5.89
O=C(O)COc1cccc(CCCC=NOC(c2ccccc2)c2ccccc2)c1	PGI2 receptor in the human blood platelet membrane fraction (Homo sapiens)	5.32
O=C(O)COc1cccc(/C=C/Cn2cc(C(c3ccccc3)c3ccccc3)cn2)c1	PGI2 receptor in the human blood platelet membrane fraction (Homo sapiens)	6.66
